All figures here come from ChEMBL document CHEMBL1921667.

Please go through the items and note down their half-life.
test: Half life in rat at 1 mg/kg, iv and 2 mg/kg, po; type: ADME, organism-based; details: in vivo
Numbers only here, please. The scale is h.

So what's the measured half-life for this one? `COc1cccc(CNC(=O)c2cc3ccc(-c4cn[nH]c4)cc3[nH]2)c1`
2

Here is the next molecule: `COc1cccc([C@@H](C)NC(=O)c2cc3ccc(-c4cn[nH]c4)nc3[nH]2)c1`
2

Check `COc1cccc(CNC(=O)c2c[nH]c3cc(-c4cn[nH]c4)ccc23)c1` too.
1.1

// query: `COc1cccc([C@@H](C)NC(=O)c2c[nH]c3cc(-c4cn[nH]c4)ccc23)c1`
1.1

Note, next up: `COc1cccc(CNC(=O)c2c[nH]c3nc(-c4cn[nH]c4)ccc23)c1`
1
